target: Fructose-bisphosphate aldolase (Mycobacterium tuberculosis (strain ATCC 25618 / H37Rv), UniProt P9WQA3)
Sequence (P9WQA3 whole entry): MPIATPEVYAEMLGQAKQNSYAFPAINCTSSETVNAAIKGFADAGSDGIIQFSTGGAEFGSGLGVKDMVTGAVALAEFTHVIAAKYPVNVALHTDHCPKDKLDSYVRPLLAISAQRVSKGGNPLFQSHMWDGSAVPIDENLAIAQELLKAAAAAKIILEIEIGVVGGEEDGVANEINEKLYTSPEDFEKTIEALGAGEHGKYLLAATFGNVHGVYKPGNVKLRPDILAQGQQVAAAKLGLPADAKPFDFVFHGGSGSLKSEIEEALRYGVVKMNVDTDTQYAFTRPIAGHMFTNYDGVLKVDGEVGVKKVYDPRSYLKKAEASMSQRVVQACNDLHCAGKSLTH
METRIC: IC50 (nM)
Form entry: value (nM) — number only.

Q: So what's the measured IC50 for this one? `O=C(NCc1cccc(Cl)c1)C1=C2NS(=O)(=O)C=CN2C=CC1`
Ans: 2610
